system: Escherichia coli TOP10; assay: shrunken log2 fold change of peptide-encoding DNA abundance (4.5 h post-induction vs induction); higher = less antimicrobial activity (less host growth inhibition); details: time post-induction: 4.5 h; library: site-saturation at positions 5, 18, 19, 20
Values of shrunken log2 fold change greater than or equal to -0.008 map to true (1); values below map to false (0).

sequence-text | cat
RRIRMRPPRLPRPRPRPMFAPRP | true (1)

Does the sequence RRIRWRPPRLPRPRPRPMYPPRP have recorded shrunken log2 fold change that is -0.008 or more?
false (0)

Does the sequence RRIRGRPPRLPRPRPRPGNVPRP have recorded shrunken log2 fold change that is -0.008 or more?
true (1)

Does the sequence RRIRQRPPRLPRPRPRPDALPRP have recorded shrunken log2 fold change that is -0.008 or more?
false (0)

Does the sequence RRIRWRPPRLPRPRPRPFHKPRP have recorded shrunken log2 fold change that is -0.008 or more?
false (0)

Does the sequence RRIRSRPPRLPRPRPRPTMDPRP have recorded shrunken log2 fold change that is -0.008 or more?
false (0)

Does the sequence RRIRYRPPRLPRPRPRPMKCPRP have recorded shrunken log2 fold change that is -0.008 or more?
false (0)

Does the sequence RRIRMRPPRLPRPRPRPCGAPRP have recorded shrunken log2 fold change that is -0.008 or more?
true (1)

Does the sequence RRIRYRPPRLPRPRPRPPLMPRP have recorded shrunken log2 fold change that is -0.008 or more?
false (0)

* * *

test system: Escherichia coli TOP10; assay: shrunken log2 fold change of peptide-encoding DNA abundance (4.5 h post-induction vs induction); higher = less antimicrobial activity (less host growth inhibition); conditions: time post-induction: 4.5 h; library: site-saturation at positions 5, 18, 19, 20
Recorded shrunken log2 fold change, one value per entry.
Returns: the value as a bare number; no unit string appended.

Specify shrunken log2 fold change for RRIRGRPPRLPRPRPRPMGSPRP and stop.
-0.0284

* * *

tested on: Escherichia coli TOP10; experiment: shrunken log2 fold change of peptide-encoding DNA abundance (4.5 h post-induction vs induction); higher = less antimicrobial activity (less host growth inhibition); settings: time post-induction: 4.5 h; library: site-saturation at positions 5, 18, 19, 20;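 further: peptides expressed intracellularly from a pBAD plasmid library in pooled LB shake-flask culture, induced with 0.3% L-arabinose, DNA abundance read by NGS, three biological replicates, DESeq2 with apeglm shrinkage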
Recorded shrunken log2 fold change, one value per entry.
Returns: the value as a bare number; no unit string appended.

sequence-text | outcome-measure | experimental-result
RRIRRRPPRLPRPRPRPSWIPRP | shrunken log2 fold change | -0.284
RRIRARPPRLPRPRPRPPCEPRP | shrunken log2 fold change | 0.716
RRIRARPPRLPRPRPRPDNKPRP | shrunken log2 fold change | -0.24
RRIRKRPPRLPRPRPRPGCHPRP | shrunken log2 fold change | 0.0456
RRIRRRPPRLPRPRPRPNAKPRP | shrunken log2 fold change | 0.0165
RRIRWRPPRLPRPRPRPCGHPRP | shrunken log2 fold change | 0.108
RRIRNRPPRLPRPRPRPLTQPRP | shrunken log2 fold change | -0.328
RRIRYRPPRLPRPRPRPMVNPRP | shrunken log2 fold change | -0.0376

Give the observed shrunken log2 fold change of RRIRLRPPRLPRPRPRPRIQPRP for Escherichia coli TOP10.
0.239

Give the observed shrunken log2 fold change of RRIRMRPPRLPRPRPRPLYHPRP for Escherichia coli TOP10.
-0.0416

Give the observed shrunken log2 fold change of RRIRNRPPRLPRPRPRPSCPPRP for Escherichia coli TOP10.
-0.4

Give the observed shrunken log2 fold change of RRIRGRPPRLPRPRPRPAGHPRP for Escherichia coli TOP10.
0.562

Give the observed shrunken log2 fold change of RRIRTRPPRLPRPRPRPCIIPRP for Escherichia coli TOP10.
-0.0804

Give the observed shrunken log2 fold change of RRIRQRPPRLPRPRPRPDVFPRP for Escherichia coli TOP10.
-0.211

Give the observed shrunken log2 fold change of RRIRKRPPRLPRPRPRPGFVPRP for Escherichia coli TOP10.
0.259
